Where do these numbers come from? They come from BindingDB's records for doi:10.1021/jm960097t.

Biological target: Thymidylate synthase (Pneumocystis carinii)
Assay: The inhibitory concentration of compound was evaluated on Pneumocystis carini Thymidylate synthase
parameter: pIC50
Scale explanation: pIC50 corresponds to minus log10 of a concentration expressed in moles per litre.

Request: State the recorded pIC50 for this entry: `Cc1[nH]c2nc(N)[nH]c(=O)c2c1Sc1ccccc1`
Result: 4.22
